- ASSAYED_SYSTEM: HLA-A*24:02
- ASSAY: IEDB peptide-MHC binding, purified MHC/competitive/radioactivity; filed as Kd, often an IC50 or EC50 that approximates it; bounds were set here for any values at or beyond the usual limits of such assays
- CONDITION_LABEL: source organism: Dengue virus 1 Brazil/97-11/1997
RECORDED_ENDPOINT: Kd (µM)

[[record]]
residue_string = "YMPSVVETL"
value_reported = 1.01

[[record]]
residue_string = "RSCTLPPLRF"
value_reported = 10.7

[[record]]
residue_string = "VMAFIAFLRF"
value_reported = 0.901

[[record]]
residue_string = "EYQKTKNNDW"
value_reported = 19.7


----------
- ASSAYED_SYSTEM: HLA-A*03:01
- ASSAY: IEDB peptide-MHC binding, purified MHC/competitive/radioactivity; filed as Kd, often an IC50 or EC50 that approximates it; bounds were set here for any values at or beyond the usual limits of such assays
- CONDITION_LABEL: source organism: Dengue virus 2 Jamaica/1409/1983
pKd: −log10 of the molar value.
RECORDED_ENDPOINT: pKd

[[record]]
residue_string = "ITYKCPLLR"
value_reported = 7.79

[[record]]
residue_string = "KITAEWLWK"
value_reported = 7.00

[[record]]
residue_string = "LMYFHRRDLR"
value_reported = 6.85

[[record]]
residue_string = "TTFVTPMLR"
value_reported = 6.99


----------
- ASSAYED_SYSTEM: HLA-B*18:01
- ASSAY: IEDB peptide-MHC binding, purified MHC/competitive/radioactivity; filed as Kd, often an IC50 or EC50 that approximates it; bounds were set here for any values at or beyond the usual limits of such assays
- CONDITION_LABEL: source organism: Mammarenavirus juninense
pKd: −log10 of the molar value.
Listed next: entries and their corresponding pKd.
RECORDED_ENDPOINT: pKd

[[record]]
residue_string = "EELIKLRFWF"
qual = "="
value_reported = 6.13

[[record]]
residue_string = "SDQKFVDVI"
qual = "≤"
value_reported = 4.58


----------
- ASSAYED_SYSTEM: HLA-A*02:03
- ASSAY: IEDB peptide-MHC binding, purified MHC/direct/fluorescence; filed as Kd, often an IC50 or EC50 that approximates it; bounds were set here for any values at or beyond the usual limits of such assays
- CONDITION_LABEL: source organism: Entamoeba histolytica HM-1:IMSS
pKd: −log10 of the molar value.
RECORDED_ENDPOINT: pKd

[[record]]
residue_string = "KLMPGSIYV"
assayed_system = "HLA-A*02:03"
recorded_endpoint = "pKd"
value_reported = "≥ 9.00"


----------
- ASSAYED_SYSTEM: HLA-B*48:01
- ASSAY: IEDB peptide-MHC binding, purified MHC/competitive/fluorescence; filed as Kd, often an IC50 or EC50 that approximates it; bounds were set here for any values at or beyond the usual limits of such assays
- CONDITION_LABEL: source organism: Cryptosporidium parvum Iowa II
pKd: −log10 of the molar value.
RECORDED_ENDPOINT: pKd

[[record]]
residue_string = "WMYNIQPYL"
assayed_system = "HLA-B*48:01"
value_reported = 7.46


----------
Listed next: entries and their corresponding pKd.
- ASSAYED_SYSTEM: HLA-A*26:01
- ASSAY: IEDB peptide-MHC binding, purified MHC/competitive/fluorescence; filed as Kd, often an IC50 or EC50 that approximates it; bounds were set here for any values at or beyond the usual limits of such assays
- CONDITION_LABEL: source organism: Homo sapiens
pKd: −log10 of the molar value.
RECORDED_ENDPOINT: pKd

[[record]]
residue_string = "VTENKKIQY"
value_reported = "≤ 4.70"

[[record]]
residue_string = "FQWHEAMFL"
value_reported = "≤ 4.70"

